Reference for the values: PubChem BioAssay (NCI)

- Tested on: UACC-62 melanoma
- ASSAY METHOD TEXT: NCI tumour cell line growth inhibition, 48 h
Reported TGI values are given for each entry in this list.

See these solved cases before continuing.
COCCOCCOCCOc1cccc2c1C(=O)c1cccc(OCCOCCOCCOC)c1C2=O: > 100 µM
CC1=Nc2c([nH]c(=S)[nH]c2=O)NC(c2c(Cl)cccc2Cl)C1 (stereo not given): 4.45 µM
COc1cc(C(C)O)c[n+](CCC2CNc3ccccc32)c1 (stereo not given): > 100 µM
CC(C)=CC[C@]12CCN(C)[C@H]1N(S(=O)(=O)c1ccccc1)c1ccccc12: > 62 µM

Looking up O=C1c2cccnc2C(=O)c2c1c(C(=O)OCCCN1CCCCC1)c1ccccn21 , I see its TGI listed as 0.0478 µM

Looking up C/C(N=NS(=O)(=O)c1ccc([N+](=O)[O-])cc1)=C1\C=CC=CN1O , I see its TGI listed as > 100 µM

----------
Each record here notes measured TGI.
- Test system: SK-OV-3 ovarian
- ASSAY METHOD TEXT: NCI tumour cell line growth inhibition, 48 h

Worked examples follow.
Br[C@@H]1[C@H]2c3nc4ccccc4nc3[C@@H]1C[C@H]2Br: > 100 µM
O=c1c2cc3c(cc2c2cccc4c2n1CCC4)OCO3: > 100 µM

Lab note: CCC1(CN(C)C)CC/C(=C\c2ccc(OC)c(OC)c2)C1=O (stereo not given) gave TGI of > 100 µM

Form: molecule = c1ccc2c(c1)cc1n2CCc2c-1[nH]c1ccccc21 ; TGI = > 10 µM

TGI in this record for O=C(/C=C(\C(=O)c1cccs1)c1cccs1)c1ccc(C(=O)/C=C(\C(=O)c2cccs2)c2cccs2)cc1 : > 100 µM

----------
As shown below, each of these compounds has a reported TGI value.
- System: SF-295 CNS
- ASSAY METHOD TEXT: NCI tumour cell line growth inhibition, 48 h
Return type: number; implicit unit µM.

O=C(CCCN1CCC(C(O)c2ccc(F)cc2)CC1)c1ccc(F)cc1 (stereo unspecified): 118
COc1ccc(CCN2CCC(CN(C)Cc3cnn(-c4ccccc4)c3)CC2)cc1: 25.2
CC1(C)COC2=C(C1)C(=O)c1ccccc1C2=O: 3
C(=Nc1ccc(-c2nc3ccccc3s2)cc1)c1ccc[nH]1: 27.9
CC(C)c1ccccc1SCc1cc(=O)cc(CSc2ccccc2C(C)C)o1: 67.5

Log: SF-295 CNS, compound Cc1cccc2c3c(sc12)C(c1ccc(F)cc1)C(C#N)=C(N)O3 (stereo unspecified) , TGI = 0.329

----------
- Tested on: SN12C renal
- ASSAY METHOD TEXT: NCI tumour cell line growth inhibition, 48 h
OBSERVABLE: TGI

Some entries whose results are on file:
C=C(Cl)C(Cl)(CCl)CCC(Br)C(C)(C)Br (centres undefined): > 10 µM
C/C(=N\Nc1nc2ccccc2s1)c1cc2ccccc2cn1: 30.8 µM
OC1(c2ccc(Cl)cc2)c2ccccc2-c2nc3ccccc3n21 (centres undefined): > 100 µM
COc1ccc(CCN2CCC(CN(C)Cc3cnn(-c4ccccc4)c3)CC2)cc1: > 100 µM
CC(=O)c1ccc(NC(=O)COC(=O)c2cccc3c(=O)c4ccccc4[nH]c23)cc1: > 100 µM

Please find the next molecule below.
Entry O=C(/C=C(\C(=O)c1cccs1)c1cccs1)c1ccc(C(=O)/C=C(\C(=O)c2cccs2)c2cccs2)cc1 , tested on SN12C renal, has a reported TGI of > 100 µM
